- measured on: T1, Recombinant activated HRAS (G12V; residues 1-166), GppNp-bound (human, UniProt P01112 1-166, loaded with 5'-guanylylimidodiphosphate (GppNp), a non-covalent nucleotide)
- T1 construct: range 1-166; Antigen of the ELISA and BIAcore assays; also called HRASG12V-GppNp; RASG12V-GppNp
- procedure summary: SPR (BIAcore 2000), Example 12
pKd: −log10 of the molar value.
attribute measured: pKd

// query pKd value for entry IDab 33 (single VH domain of anti-RAS scFv33) (other, also called 33VH; VH from intrabody anti-RAS scFv33) VH: QVQLVEAGGGLVQPGGSLRLSCAASGFSFSTFSMNWVRQAPGKGLEWVSYISSSGRTIYYADSVKGRFTISRDNAKNSLYLQMNSLRDEDTAVYYCARGRFFDYWGQGTLVTVSS
~7.05

// query pKd value for entry IDab anti-RAS #12 (other) VH: EVQLLESGGGLVQPGGSLRLSCAASGFSFSVWAMSWVRQAPGKGLEWVSYISRTSKTIYYADSVKGRFTISRDNSKNTLYLQMNSLRAEDTAVYYCARGRFFDYWGQGTLVTVSS
~7.59

// query pKd value for entry anti-RAS scFv33 (scFv, ELISA and BIAcore: purified from periplasm with C-terminal His6-tag and myc-tag; Two-hybrid: fused to VP16 AD; Co-location: with nls and myc-tag; also called ICAb 33) scFv: QVQLVEAGGGLVQPGGSLRLSCAASGFSFSTFSMNWVRQAPGKGLEWVSYISSSGRTIYYADSVKGRFTISRDNAKNSLYLQMNSLRDEDTAVYYCARGRFFDYWGQGTLVTVSSGGGGSGGGGSGGGGSDIVMTQSPSFLSASVGDRVTITCRASQSISRYLNWYQQKPGKAPKLLIYAASSLQSGVPSRFSGSGSGTDFTLTISSLQPEDFAIYYCQQSYSTLLTFGGGTKLEIKR
~8.00

// query pKd value for entry IDab anti-RAS #3 (other, also called anti-RAS clone #3; clone 3) VH: QVQLVESGGGLVQPGGSLRLSCAASGFTFSSYAMHWVRQAPGKGLEWVSVISKLTHHTYYADSVKGRFTISRDNSKNTLYLQMNSLRAEDTAVYYCARGVQGYVHGLKGNWFDYWGQGTLVTVSS
~6.74
